# tested.on: human plasma kallikrein (Homo sapiens)
# Sequence (P03952 391-638 limits assumed): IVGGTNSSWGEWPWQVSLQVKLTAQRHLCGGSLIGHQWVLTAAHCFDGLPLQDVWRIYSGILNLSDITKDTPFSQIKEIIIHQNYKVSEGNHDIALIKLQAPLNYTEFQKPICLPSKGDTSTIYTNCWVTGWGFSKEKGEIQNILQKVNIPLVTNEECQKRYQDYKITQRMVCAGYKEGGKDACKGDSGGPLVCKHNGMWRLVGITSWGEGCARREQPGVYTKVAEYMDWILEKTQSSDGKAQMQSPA
# Sequence (P03952 20-390 partner limits assumed): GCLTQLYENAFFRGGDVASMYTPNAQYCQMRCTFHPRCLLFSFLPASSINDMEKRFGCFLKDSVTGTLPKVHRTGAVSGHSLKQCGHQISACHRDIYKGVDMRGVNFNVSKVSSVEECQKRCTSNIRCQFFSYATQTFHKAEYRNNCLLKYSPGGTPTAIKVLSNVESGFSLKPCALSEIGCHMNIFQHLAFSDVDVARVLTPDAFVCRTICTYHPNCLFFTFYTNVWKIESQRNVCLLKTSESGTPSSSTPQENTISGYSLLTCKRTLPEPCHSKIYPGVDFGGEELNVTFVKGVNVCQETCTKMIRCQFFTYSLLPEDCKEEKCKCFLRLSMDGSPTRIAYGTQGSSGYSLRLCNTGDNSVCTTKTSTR
# assay.remarks: Kallikrein inhibition FLINT assay with quenched AMC peptide substrate Z-Gly-Pro-Arg-AMC (end point EP or kinetic KIN reads)
# Type: biochemical
# details: kinetic reads at 5 min intervals over 30 min; read-out: Kallikrein (KIN) IC50
pIC50 overview
Quick note: pIC50 values are minus log10 of concentrations in mol/L.

Below are worked cases with known answers.
molecule	tested.on	pIC50
O=C(c1cnn(CC(c2ccc(-c3c(-n4cnnn4)ccc(Cl)c3F)c[n+]2[O-])n2cc(-c3cc[n+]([O-])cc3)cn2)c1)N1CCCCC1 (stereo not drawn) [Example P292]	human plasma kallikrein (Homo sapiens)	7.29
NC(=O)c1ccc(-c2cnn(C(Cc3ccn(C(F)F)n3)c3ccc(-c4c(-n5cc(Cl)nn5)ccc(Cl)c4F)c[n+]3[O-])c2)cc1F (stereo not drawn) [Example P894]	human plasma kallikrein (Homo sapiens)	8.60
O=C(Cc1cnn(CC(c2ccc(-c3c(-n4cnnn4)ccc(Cl)c3F)c[n+]2[O-])n2cc(-c3ccnc(C(F)(F)F)c3)cn2)c1)N1CCCCC1 (stereo not drawn) [Example P473]	human plasma kallikrein (Homo sapiens)	6.98

Input line: Tell me reported pIC50 for COCC[C@H](c1ccc(-c2c(-n3cnnn3)ccc(Cl)c2F)c[n+]1[O-])n1cc(-c2cnc(C(F)F)s2)cn1 [Example P531] , tested with human plasma kallikrein (Homo sapiens).
Output line: 6.76

Input line: Query COCCC(c1ccc(-c2c(-n3cc(Cl)nn3)ccc(Cl)c2F)c[n+]1[O-])n1cc(-c2c(Cl)nnn2C)cn1 (stereo not drawn) [Example P639] next
Output line: 6.50

Input line: And what about the molecule [O-][n+]1cc(-c2c(-n3cnnn3)ccc(Cl)c2F)ccc1C(Cn1cc(F)cn1)n1cc(-c2ccnc(C(F)(F)F)c2)cn1 (stereo not drawn) [Example P333] ?
Output line: 7.76
